For each entry below, report its growth at 0.01 µM value.
System: UACC-62
Experiment: Growth inhibition of human UACC62 cells assessed as cell growth at 10^-8 M by sulforhodamine B assay
Format: functional
Conditions: read-out: Activity
// note: answer is a bare numeric in %

Q: Identify measured growth at 0.01 µM corresponding to `CC(C)=CC(=O)O[C@@H]1CC(C)(C)C[C@H]2C3=CC[C@@H]4[C@@]5(C)CC[C@H](O)C(C)(C)[C@@H]5CC[C@@]4(C)[C@]3(C)CC[C@@]12C(=O)O`
Result: 94

Q: Identify measured growth at 0.01 µM corresponding to `C/C=C(/C)C(=O)O[C@@H]1CC(C)(C)C[C@H]2C3=CC[C@@H]4[C@@]5(C)CCC(=O)C(C)(C)[C@@H]5CC[C@@]4(C)[C@]3(C)CC[C@@]12C(=O)O`
Result: 97

Q: Identify measured growth at 0.01 µM corresponding to `C/C=C(/C)C(=O)O[C@@H]1CC(C)(C)C[C@H]2C3=CC[C@@H]4[C@@]5(C)CC[C@H](O)C(C)(C)[C@@H]5CC[C@@]4(C)[C@]3(C)CC[C@@]12C(=O)O`
Result: 96

Q: Identify measured growth at 0.01 µM corresponding to `CC1(C)C[C@@H](O)[C@]2(C(=O)O)CC[C@]3(C)C(=CC[C@@H]4[C@@]5(C)C/C(=C\C=C\c6ccccc6)C(=O)C(C)(C)[C@@H]5CC[C@]43C)[C@@H]2C1`
Result: 96

Q: Identify measured growth at 0.01 µM corresponding to `CC(C)=CC(=O)O[C@@H]1CC(C)(C)C[C@H]2C3=CC[C@@H]4[C@@]5(C)CCC(=O)C(C)(C)[C@@H]5CC[C@@]4(C)[C@]3(C)CC[C@@]12C(=O)O`
Result: 102
